protocolText: growth inhibitors of H69AR lung tumor, primary screen, human, duplicate replicates (AID 580);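 also: 100% = mean luminescence of untreated wells and 0% = no signal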
conditionSummary: H69AR lung tumor cells viability, ATP luminescence, 72 h; at 10 µM; hits give low values
Catalogue of viability values
readoutName: viability (%)

>>> assayvalue("O=C(O)c1ccc(CSc2ncn[nH]2)cc1")
94.4
>>> assayvalue("CN(C)CC(C(=O)c1ccccc1)c1ccccc1 (centres undefined)")
1.17
>>> assayvalue("Cc1cc(N2C(=O)C(=O)/C(=C(/O)c3ccc(F)cc3)C2c2ccc(F)cc2)no1 (centres undefined)")
91.3
>>> assayvalue("CCCC(=O)Nc1cnc(NC(=O)c2cccc(F)c2)cc1C")
88.7
>>> assayvalue("COc1ccc(CCN(C)CCCC(C#N)(c2cc(OC)c(OC)c(OC)c2)C(C)C)cc1OC (centres undefined)")
95.6
>>> assayvalue("COc1cc(-c2nc(S(=O)(=O)c3ccc(C)cc3)c(N(C)C)o2)cc(OC)c1OC")
87.9
>>> assayvalue("CCN(c1ccc2c(c1)OCO2)S(=O)(=O)c1cc(Br)cc2c1N(C(=O)C1CC1)CC2")
73.9
>>> assayvalue("CCn1c(SCC(=O)Nc2ccccc2N2CCCCC2)nc2c1c(=O)n(C)c(=O)n2C")
73.9
>>> assayvalue("CCNc1ccc(S(=O)(=O)C(F)(F)F)cc1NC(=O)C12CCC(CC1)C2")
92.3
>>> assayvalue("Cc1cc(NC(=O)CSc2nnc(C3CC3)n2C)no1")
100
>>> assayvalue("CC(C)N=c1cc2n(-c3ccc(Cl)cc3)c3ccccc3nc-2cc1Nc1ccc(Cl)cc1")
64.4
>>> assayvalue("CCc1c(C)nc(N)n2c(SCC(=O)N3CCCc4ccccc43)nnc12")
100
>>> assayvalue("Cc1ccc(N2CC(C(=O)Nc3ccc4c(c3)OCO4)CC2=O)cc1 (centres undefined)")
99.6
>>> assayvalue("O=c1[nH]c(NCc2ccccc2)nc2c1CCCC2")
104
